Molecular target: GST-YTHDC1 (345-509) protein (Homo sapiens)
Construct: GST-YTHDC1 (345-509) protein
Assay: Fluorescence polarization-based in vitro enzyme-level test against YTHDC1
Type: binding
Conditions: 30 nM GST-YTHDC1 (345-509), FAM-labeled m6A-modified single-stranded oligonucleotide, 18° C., 4 hours; read-out: IC50 (Inhibitory Activity against YTHDC1)
Entries annotated with measured IC50
Report the value in nM with no unit label.

# compound O=C(Nc1ccc(-c2cnco2)cc1)c1cc(C(=O)c2ccccc2N2CC(F)C2)c[nH]1 [Compound 153] ; its IC50 = 14

Field IC50 (entry COc1ccccc1C(=O)c1c[nH]c(C(=O)Nc2cccnc2)c1 [Compound 9] ) reads 10600

CCN(C)c1ccccc1C(=O)c1c[nH]c(C(=O)Nc2ccc(-c3cnco3)cc2)c1 [Compound 127] has a reported IC50 of 13

Entry under test: O=C(Nc1cccnc1)c1cc(C(=O)c2ccccc2C(F)(F)F)c[nH]1 [Compound 2] . Its IC50 was 800

Record summary for CS(=O)(=O)c1ccccc1-c1cccc2[nH]c(C(=O)Nc3ccc(-c4cncs4)cc3)cc12 [Compound 69] : reported IC50 = 373

Recorded result, O=C(Nc1ccc(-c2cnco2)cc1)c1cc(C(=O)c2ccccc2N2CCCCCC2)c[nH]1 [Compound 140] , IC50: 134

Documented IC50 of CCOC(=O)c1ccc(NC(=O)c2cc(C(=O)c3ccccc3C(F)(F)F)c[nH]2)cc1 [Compound 20] : 23

Notebook: CC1CCN(c2ccccc2C(=O)c2c[nH]c(C(=O)Nc3ccc(-c4cnco4)cc3)c2)CC1 [Compound 125] , IC50 read as 13

Field IC50 (entry CCc1ccccc1C(=O)c1c[nH]c(C(=O)Nc2cccnc2)c1 [Compound 11] ) reads 1570

Briefly, IC50 measured for O=C(Nc1ccc(-c2cnc(N3CC(F)C3)s2)cc1)c1cc(C(=O)c2ccccc2C(F)(F)F)c[nH]1 [Compound 34] : 22

IC50 measured on O=C(Nc1ccc(-c2cnc(N3CCN(C4COC4)CC3)o2)cc1)c1cc(C(=O)c2ccccc2Br)c[nH]1 [Compound 85] = 234

###

Biological target: GST-YTHDC1 (345-509) protein (Homo sapiens, UniProt Q96MU7)
Construct: GST-YTHDC1 (345-509) protein
Assay: Fluorescence polarization-based in vitro enzyme-level test against YTHDC1
Format: binding
Details: 30 nM GST-YTHDC1 (345-509), FAM-labeled m6A-modified single-stranded oligonucleotide, 18° C., 4 hours; read-out: IC50 (Inhibitory Activity against YTHDC1)
pIC50: −log10 of the molar value.
Please use Fulfilled whenever pIC50 is not below 7, and Not fulfilled whenever it is.

See these solved cases before continuing.
N#Cc1ccc(-c2ccc(NC(=O)c3cc(C(=O)c4ccccc4C(F)(F)F)c[nH]3)cc2)s1 ... Fulfilled
O=C(Nc1ccc2c(c1)CCN2c1ccccc1)c1cc(C(=O)c2ccccc2C(F)(F)F)c[nH]1 ... Not fulfilled
O=C(Nc1ccc(-c2cncs2)cc1)c1cc2c(-c3ccncc3C(F)(F)F)nccc2[nH]1 ... Not fulfilled
O=C(Nc1ccc(-c2cnc(N3CCCC3)s2)cc1)c1cc(C(=O)c2ccccc2C(F)(F)F)c[nH]1 ... Fulfilled
CS(=O)(=O)c1ccccc1-c1nccc2[nH]c(C(=O)Nc3ccc(-c4cnco4)cc3)cc12 ... Not fulfilled
O=C(Nc1ccc(-c2cncs2)cc1)c1cc2c(-c3ccc(C(F)(F)F)cc3C(F)(F)F)nccc2[nH]1 ... Not fulfilled

Continue with the next compound.
Is the recorded value of pIC50 equal to or greater than 7 for this compound? O=C(Nc1ccccc1)c1ccc(NC(=O)c2cc(C(=O)c3ccccc3C(F)(F)F)c[nH]2)cc1 Not fulfilled

###

Target: GST-YTHDC1 (345-509) protein (Homo sapiens)
Construct: GST-YTHDC1 (345-509) protein
Assay: Fluorescence polarization-based in vitro enzyme-level test against YTHDC1
Format: binding
Settings: 30 nM GST-YTHDC1 (345-509), FAM-labeled m6A-modified single-stranded oligonucleotide, 18° C., 4 hours; read-out: IC50 (Inhibitory Activity against YTHDC1)
Each entry below carries its recorded pIC50.
// pIC50 here means minus log10 of the molar concentration (mol/L)

Solved cases (2 shown):
CC(C)(C)OC(=O)N1CCN2c3ccc(NC(=O)c4cc(C(=O)c5ccccc5C(F)(F)F)c[nH]4)cc3OCC2C1 (stereo not shown) [Compound 82] ... 6.90
O=C(Nc1ccc(-c2ccccc2)cc1)c1cc(C(=O)c2ccccc2C(F)(F)F)c[nH]1 [Compound 21] ... 7.15

The recorded pIC50 for O=C(Nc1ccccc1)c1cc(C(=O)c2ccccc2C(F)(F)F)c[nH]1 [Compound 12] is 6.92

Field pIC50 (entry O=C(Nc1ccc(-c2cnc(N3CCOCC3)o2)cc1)c1cc(C(=O)c2ccccc2C(F)(F)F)c[nH]1 [Compound 77] ) reads 7.17

###

Target: GST-YTHDC1 (345-509) protein (Homo sapiens, UniProt Q96MU7)
Construct: GST-YTHDC1 (345-509) protein
Test: Fluorescence polarization-based in vitro enzyme-level test against YTHDC1
Format: binding
Conditions: 30 nM GST-YTHDC1 (345-509), FAM-labeled m6A-modified single-stranded oligonucleotide, 18° C., 4 hours; read-out: IC50 (Inhibitory Activity against YTHDC1)
pIC50: −log10 of the molar value.
Criterion: pIC50 meeting or surpassing 7. Met: 1.0. Not met: 0.0.

COc1cnccc1-c1nccc2[nH]c(C(=O)Nc3ccc(-c4cncs4)cc3)cc12 [Compound 46] ... 0.0
O=C(Nc1ccc(-c2cncs2)cc1)c1cc2c(-c3ccccc3OC3CC3)nccc2[nH]1 [Compound 67] ... 0.0
CCN(CCNc1ncc(-c2ccc(NC(=O)c3cc(C(=O)c4ccccc4C(F)(F)F)c[nH]3)cc2)o1)C(=O)OC(C)(C)C [Compound 76] ... 0.0
CN1CCN(c2ncc(-c3ccc(NC(=O)c4cc(C(=O)c5ccccc5Br)c[nH]4)cc3)o2)CC1 [Compound 80] ... 0.0
O=C(Nc1ccc(-c2cnco2)cc1)c1cc(C(=O)c2ccccc2N2CCSCC2)c[nH]1 [Compound 118] ... 1.0

Determine whether measured pIC50 meets or exceeds 7 for O=C(Nc1ccc(C(F)(F)F)c(F)c1)c1cc(C(=O)c2ccccc2C(F)(F)F)c[nH]1 [Compound 113] 1.0

Could you tell me if the measured pIC50 of O=C(Nc1ccc(-c2cncs2)cc1)c1cc2c(-c3c[nH]nc3C(F)(F)F)nccc2[nH]1 [Compound 54] reaches 7 or more? 0.0

Decide: pIC50 of O=C(Nc1ccc(-c2cncs2)cc1)c1cc2c(-c3ccccc3C(F)(F)F)nccc2[nH]1 [Compound 41] >= 7? 0.0

Quick check, pIC50 >= 7? CS(=O)(=O)c1ccccc1-c1nccc2[nH]c(C(=O)Nc3ccc(-c4ccncc4)cc3)cc12 [Compound 73] 0.0

State whether the measured pIC50 reaches 7, counting equality as reaching it, for O=C(Nc1ccc(C(=O)N2CCC3(CC2)OCc2ccccc23)cc1)c1cc(C(=O)c2ccccc2C(F)(F)F)c[nH]1 [Compound 120] 0.0

Answer whether pIC50 of COc1ccc(CNc2ccccc2C(=O)c2c[nH]c(C(=O)Nc3ccc(-c4cnco4)cc3)c2)cc1 [Compound 130] is greater than or equal to 7. 0.0

###

Target: GST-YTHDC1 (345-509) protein (Homo sapiens)
Construct: GST-YTHDC1 (345-509) protein
Test: Fluorescence polarization-based in vitro enzyme-level test against YTHDC1
Assay type: binding
Conditions: 30 nM GST-YTHDC1 (345-509), FAM-labeled m6A-modified single-stranded oligonucleotide, 18° C., 4 hours; read-out: IC50 (Inhibitory Activity against YTHDC1)
Each entry below carries its reported IC50.

Below: 5 molecules and their reported IC50.
CC(C)(C)OC(=O)Nc1ccc(-c2ccc(NC(=O)c3cc(C(=O)c4ccccc4C(F)(F)F)c[nH]3)cc2)cc1 ... ≥ 50000 nM
O=C(Nc1ccc(C(F)(F)F)cc1[N+](=O)[O-])c1cc(C(=O)c2ccccc2C(F)(F)F)c[nH]1 ... ≥ 50000 nM
O=C(c1ccccc1)c1c[nH]c(C(=O)Nc2cccnc2)c1 ... > 50000 nM
O=C(Nc1ccc(-c2cncs2)cc1)c1cc2c(-c3ccccc3)nccc2[nH]1 ... > 50000 nM
CC(=O)c1ccc(NC(=O)c2cc(C(=O)c3ccccc3C(F)(F)F)c[nH]2)cc1 ... 31 nM

Reported IC50 ( O=C(Nc1ccc(-c2cnco2)cc1)c1cc(C(=O)c2ccccc2C2=CCCC2)c[nH]1 ) = 25 nM

Summary for this molecule, O=C(Nc1ccccc1F)c1cc(C(=O)c2ccccc2C(F)(F)F)c[nH]1 : IC50 is 612 nM

Record summary for O=C(Nc1ccc2c(c1)OCc1ccccc1-2)c1cc(C(=O)c2ccccc2C(F)(F)F)c[nH]1 : reported IC50 = 98.7 nM

Entry under test: CS(=O)(=O)c1ccccc1-c1ccnc2[nH]c(C(=O)Nc3ccc(-c4cncs4)cc3)cc12 . Its IC50 was 2280 nM

Input O=C(Nc1ccc(-c2cncs2)cc1)c1cc2c(-c3ccccc3F)nccc2[nH]1 . Output IC50: > 50000 nM

Data point: CN(CCO)c1cc(NC(=O)c2cc(C(=O)c3ccccc3C(F)(F)F)c[nH]2)ccc1-c1cnco1 ; IC50 = 258 nM

Sample Cc1ncsc1-c1ccc(NC(=O)c2cc(C(=O)c3ccccc3C(F)(F)F)c[nH]2)cc1 ; IC50 observed: 12 nM
